- assay-remarks: Primary qHTS for Vero E6 cytotoxicity: counterscreen for inhibitors of SARS-S pseudo-typed particle cell entry (AID 1479150)
- cond: cell viability; series mostly up to 57.1 µM
Inconclusive results are not listed. The source made the active and inactive calls. The call rests on the fitted dose curve.
observation-type: activity change, negative = cytotoxicity

1. CCCCC(CC)COC(=O)c1ccc(Nc2nc(Nc3ccc(C(=O)OCC(CC)CCCC)cc3)nc(Nc3ccc(C(=O)OCC(CC)CCCC)cc3)n2)cc1 (stereo unspecified) = inactive
2. C=CC1(C)CC(=O)C2(O)C(C)(O1)C(OC(C)=O)C(OC(=O)CCN(C)C)C1C(C)(C)CCC(O)C12C (stereo unspecified) = inactive
3. O=C(O)C(O)[C@H](O)[C@H](O)[C@H](O)[C@H](O)CO (stereo partly specified) = inactive
4. CC(C)C(=O)OCC(=O)[C@@]12OC(C3CCCCC3)O[C@@H]1C[C@H]1[C@@H]3CCC4=CC(=O)C=C[C@]4(C)[C@H]3[C@@H](O)C[C@@]12C (stereo partly specified) = inactive

Enquiry: Would you kindly share the measured activity change, negative = cytotoxicity for CC[C@H]1OC(=O)[C@H](C)[C@@H](O[C@H]2C[C@@](C)(OC)[C@@H](O)[C@H](C)O2)[C@H](C)[C@@H](O[C@@H]2O[C@H](C)C[C@H](N(C)C)[C@H]2O)C(C)(O)C[C@@H](C)/C(=N\OCOCCOC)[C@H](C)[C@@H](O)[C@]1(C)O (stereo partly specified) ?
Return: inactive

Enquiry: Follow-up item: CC(C)(C)C(=O)OCC(=O)[C@H]1CC[C@H]2[C@@H]3CCC4=CC(=O)CC[C@]4(C)[C@H]3CC[C@]12C
Return: inactive
